Assay: Solubility in PBS buffer by OECD flask method with HPLC quantification
Assay type: physicochemical
Conditions: 25 °C, pH 7.4, aqueous buffer, thermodynamic from solid, PBS buffer pH 7.4, single experiment II, read-out: Solubility (II)
RECORDED_ENDPOINT: solubility at 72 h (µg/mL)
Your answer should be a plain number; it is taken to be in µg/mL.

Please look up its solubility at 72 h: O=C(CCCCCCC(=O)Nc1ccccc1)NO [vorinostat, reference compound]
259

---

Target: HDAC2 (Homo sapiens)
Sequence (Q92769 whole entry): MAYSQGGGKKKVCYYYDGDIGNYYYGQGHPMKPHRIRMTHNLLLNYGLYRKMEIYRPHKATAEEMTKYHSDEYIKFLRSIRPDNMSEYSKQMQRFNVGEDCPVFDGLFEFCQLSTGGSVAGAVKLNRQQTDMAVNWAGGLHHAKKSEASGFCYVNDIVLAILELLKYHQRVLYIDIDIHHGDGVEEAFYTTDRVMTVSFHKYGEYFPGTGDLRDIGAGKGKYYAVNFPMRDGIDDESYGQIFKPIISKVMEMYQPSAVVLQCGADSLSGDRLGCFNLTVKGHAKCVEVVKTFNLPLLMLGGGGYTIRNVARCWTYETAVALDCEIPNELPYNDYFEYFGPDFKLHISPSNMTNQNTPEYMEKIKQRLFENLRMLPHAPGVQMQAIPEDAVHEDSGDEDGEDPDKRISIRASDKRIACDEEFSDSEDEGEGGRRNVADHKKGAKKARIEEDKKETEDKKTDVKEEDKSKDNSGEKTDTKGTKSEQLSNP
Assay: IC50-shift experiments (varied preincubation time)
Type: biochemical
Design: purchased BPS Bioscience 50052
Settings: HDAC2 IC50, preincubation 30 min, preincubation time 30 min at 20°C; triplicates
Hi there, I'd appreciate the recorded pIC50 for every entry that follows.
To interpret pIC50, take it as minus log10 of a concentration measured in moles per litre.

For CC(=O)Nc1ccc(C(=O)Nc2cc(-c3ccncc3)ccc2N)cc1 , what is its reported pIC50?
7.08

What does the record list as pIC50 for CN(C)c1ccc(C(=O)N(CC(=O)NC(C)(C)C)Cc2ccc(C(=O)Nc3cc(-c4ccncc4)ccc3N)cc2)cc1 ?
6.96
